# Tested on: HCV replicon genotype 1b
# ASSAY_PROCEDURE: HCV replicon assay, genotype 1b (cell ELISA for NS3/4A)
# Type: cell-based, hepatitis C virus
# TEST_PARAMETERS: Hepatitis C virus, 96 h, read-out: 1b IC50 (nM), HCV genotype 1b replicon cells, 96 hours incubation, NS3/4A ELISA readout, % of DMSO control
Quick rule for you: IC50 under 60 nM gets Criterion met, anything else gets Criterion not met.

These recorded examples may help you get a feel for the data.
INSERT INTO measurements (structure_smiles_string, answer_label) VALUES
  ('CNC(=O)c1c(-c2ccc(F)cc2)oc2cc(N(C)S(C)(=O)=O)c([C@H]3CCCN(C(=O)c4nc5ccccc5[nH]4)C3)cc12', 'Criterion not met'),
  ('CNC(=O)c1c(-c2ccc(F)cc2)oc2cc(N(C)S(C)(=O)=O)c([C@H]3CCCN(S(=O)(=O)C4CCCCC4)C3)cc12', 'Criterion met'),
  ('CNC(=O)c1c(-c2ccc(F)cc2)oc2cc(N(C)S(C)(=O)=O)c([C@@H]3CCCN(C(=O)c4cc5c(OC)cccc5[nH]4)C3)cc12', 'Criterion met'),
  ('CNC(=O)c1c(-c2ccc(F)cc2)oc2cc(N(C)S(C)(=O)=O)c([C@@H]3CCCN(C(=O)c4c[nH]cc4-c4ccc(F)cc4)C3)cc12', 'Criterion not met'),
  ('CNC(=O)c1c(-c2ccc(F)cc2)oc2cc(N(C)S(C)(=O)=O)c([C@@H]3CCCN(S(=O)(=O)c4cccc(C)c4)C3)cc12', 'Criterion met');

Shift focus to the following entry.
Say whether its IC50 is strictly beneath 60 nM. Entry: CNC(=O)c1c(-c2ccc(F)cc2)oc2cc(N(C)S(C)(=O)=O)c([C@H]3CCCN(C(=O)c4cn(C)c5ccccc45)C3)cc12
Criterion met

* * *

# Test system: HCV replicon genotype 1b
# ASSAY_PROCEDURE: HCV replicon assay, genotype 1b (cell ELISA for NS3/4A)
# Assay type: cell-based, hepatitis C virus
# TEST_PARAMETERS: Hepatitis C virus, 96 h, read-out: 1b IC50 (nM), HCV genotype 1b replicon cells, 96 hours incubation, NS3/4A ELISA readout, % of DMSO control
OBSERVED_PROPERTY: IC50 (nM)
One number for each entry, in nM.

Answered examples (6):
INSERT INTO measurements (compound, numeric_readout) VALUES
  ('CNC(=O)c1c(-c2ccc(F)cc2)oc2cc(N(C)S(C)(=O)=O)c([C@H]3CCCN(S(=O)(=O)c4cccc(F)c4)C3)cc12', 95.5),
  ('CNC(=O)c1c(-c2ccc(F)cc2)oc2cc(N(C)S(C)(=O)=O)c([C@H]3CCCN(S(=O)(=O)Cc4cccnc4)C3)cc12', 16.5),
  ('CNC(=O)c1c(-c2ccc(F)cc2)oc2cc(N(C)S(C)(=O)=O)c([C@@H]3CCCN(S(=O)(=O)Cc4ccccn4)C3)cc12', 29.8),
  ('CNC(=O)c1c(-c2ccc(F)cc2)oc2cc(N(C)S(C)(=O)=O)c([C@H]3CCCN(C(=O)Cc4ccc5nccnc5c4)C3)cc12', 106),
  ('CNC(=O)c1c(-c2ccc(F)cc2)oc2cc(N(C)S(C)(=O)=O)c([C@H]3CCCN(S(=O)(=O)c4cn(CC(C)C)nc4C)C3)cc12', 214),
  ('CNC(=O)c1c(-c2ccc(F)cc2)oc2cc(N(C)S(C)(=O)=O)c([C@@H]3CCCN(S(=O)(=O)c4ccccc4F)C3)cc12', 10.9);

Could I get IC50 for every one of these entries?
1. CNC(=O)c1c(-c2ccc(F)cc2)oc2cc(N(C)S(C)(=O)=O)c([C@H]3CCCN(C(=O)c4cc5cccc(F)c5o4)C3)cc12
2. CNC(=O)c1c(-c2ccc(F)cc2)oc2cc(N(C)S(C)(=O)=O)c([C@H]3CCCN(C(=O)c4ccn5nncc5c4)C3)cc12
3. CNC(=O)c1c(-c2ccc(F)cc2)oc2cc(N(C)S(C)(=O)=O)c([C@@H]3CCCN(C(=O)C=C(C)C)C3)cc12
4. CNC(=O)c1c(-c2ccc(F)cc2)oc2cc(N(C)S(C)(=O)=O)c([C@@H]3CCCN(S(=O)(=O)c4cccc5nonc45)C3)cc12
5. CNC(=O)c1c(-c2ccc(F)cc2)oc2cc(N(C)S(C)(=O)=O)c([C@H]3CCCN(S(=O)(=O)CCc4ccccc4)C3)cc12
6. CNC(=O)c1c(-c2ccc(F)cc2)oc2cc(N(C)S(C)(=O)=O)c([C@H]3CCCN(C(=O)c4nn(CC5CC5)c5ccccc45)C3)cc12

1: 62.6; 2: 219; 3: 68.1; 4: 8.37; 5: 14.2; 6: 20.4

# input compound: CNC(=O)c1c(-c2ccc(F)cc2)oc2cc(N(C)S(C)(=O)=O)c([C@H]3CN(c4nc5ccccc5o4)CCO3)cc12 (single isomer, unassigned) ; wanted: its IC50
26.6

These measurements were taken from patent US9549921B2.
